- Tested on: HPV-16 genome
- assay.details: qPCR sensitivity against HPV-16 copy number (known-copy HPV-16 DNA among 10 ng normal human DNA)
- cond: samples tested 3 times, 10 ng DNA from healthy individual
Would you mind telling me the reported number of reactions against 10 HPV-16 copies of each entry?
# unit: reactions | format: bare number

Per the record, BR E1-6: HPV-16 E1 region primer/probe set, SEQ ID NO: 43-45 (nucleic acid, chemistry not given here) DNA 1: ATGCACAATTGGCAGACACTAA DNA 2: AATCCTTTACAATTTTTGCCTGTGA DNA 3: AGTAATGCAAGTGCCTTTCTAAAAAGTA has number of reactions against 10 HPV-16 copies of 2

The reported number of reactions against 10 HPV-16 copies of the molecule BR E1-5: HPV-16 E1 region primer/probe set, SEQ ID NO: 40-42 (same as SEQ ID NO: 1-3) (nucleic acid, chemistry not given here) DNA 1: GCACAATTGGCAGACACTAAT DNA 2: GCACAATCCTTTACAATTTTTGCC DNA 3: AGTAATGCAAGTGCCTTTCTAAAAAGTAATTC was 3

Measured number of reactions against 10 HPV-16 copies, E7: previously designed (historical) HPV-16 E7 primers and Taqman probe, SEQ ID NO: 10-12; part of CLIA test (nucleic acid, Taqman probe, labels not given here, part of CLIA test) DNA 1: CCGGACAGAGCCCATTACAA DNA 2: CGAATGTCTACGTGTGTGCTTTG DNA 3: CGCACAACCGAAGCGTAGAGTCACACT : 2
